Could you please report measured PBM binding z-score for the items listed next?
- Tested on: VDR:RXRa (NR concentration 270 nM, RXRa partner concentration 90 nM)
- Procedure Details: PBM binding z-score (relative to random genomic background probes); higher = stronger binding; sequences stand for … in GC…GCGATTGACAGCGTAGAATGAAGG
Answers are plain numbers.

Study these solved cases before continuing.
CCTTACGGGTCACTGAAAGGTTATAGCATTTGGA
4.52
TCTGGTAGATCAATAGAGGTTAAGAAAGTGCGCT
1.87
CCAGACATGTGAGAAGGTAACTCAGCCTCGATTA
-0.439

State the recorded PBM binding z-score for every item in the following list.
1. TCAGACAGGTGAACGTAACTCAGGTACGCAGTCG
2. ATATGTAGGTTAGCTGGGGTGATTCAGACTAGGC

Ans:
1: 0.682; 2: 1.01

Required: PBM binding z-score, one value per sequence below.
1. CGTCCTAGGTCAAGGTCAGTGAAAGAGACTCGAA
2. ATATGTAGGTTATCGGGTCATTCAGTTTGCGCAT

Ans:
3.2
5
